Test system: T1, PSMA Fab
T1 construct: Used biotinylated and captured on neutravidin plates in the phage ELISA; also called Anti-PSMA Fab; 006 PSMA Fab
Assay procedure: phage ELISA; biotinylated PSMA Fab on neutravidin plate, blocking buffer alone; bound phage detected with anti-M13-HRP
Where no end group is shown, it is not given here.
# Phage binding ELISA signal, Anti-PSMA Fab values compiled below
Kindly provide the number alone.

Worked set:
{"Binder": "DYSVCRPAWMCQGF (cysteine pairing not given here; also: fused to phage pIII, also called Peptide-180 library clone) [Phage-3729]", "Endpoint result": 1.41}
{"Binder": "LLLRCEPTWMCTGF (also called Peptide-180 library clone) [Phage-3740]", "Endpoint result": 1.39}
{"Binder": "FTAQCVPLWMCLGF (also called Peptide-180 library clone) [Phage-3736]", "Endpoint result": 1.39}
{"Binder": "VSHHCVPAWMCFGL (also called Peptide-180 library clone) [Phage-3737]", "Endpoint result": 1.39}
{"Binder": "LYKECVPQWMCSGF (also called Peptide-180 library clone) [Phage-3731]", "Endpoint result": 1.4}
{"Binder": "HSVHCVPMWMCTGF (also called Peptide-180 library clone) [Phage-3738]", "Endpoint result": 1.39}

Dear colleague, I am looking for the recorded Phage binding ELISA signal, Anti-PSMA Fab of the following binder: YSISCVPQWMCEGF (also called Peptide-180 library clone) [Phage-3742] 1.39

What does the record list as Phage binding ELISA signal, Anti-PSMA Fab for WTPLCKPLWMCQGL (also called Peptide-180 library clone) [Phage-3741] ? 1.39

What Phage binding ELISA signal, Anti-PSMA Fab value was documented for this binder, TGMACVPWWMCEGF (also called Peptide-180 library clone) [Phage-3732] ? 1.4
